The values you see were collected from the supplement of paper PMC8882468.

# Tested on: HCI-019 (organoid from a triple-negative breast cancer xenograft)
# assayDetails: CTG-3D luminescence at 96 h relative to day-0 seeding control (ratio to day 0); higher = more growth / less cytotoxicity; PDxO 3D drug screen, 96 h, CTG-3D normalised to day-0 seeding control.
# experimentalSetup: 0.005 µM; days in culture: 131
Respond with t for CTG-3D luminescence at 96 h values of 3 and above, f for values below.

Textbook exercise: given the entry C/C=C1\NC(=O)[C@H]2CSSCC/C=C/[C@H](CC(=O)N[C@H](C(C)C)C(=O)N2)OC(=O)[C@H](C(C)C)NC1=O [romidepsin] , state whether its CTG-3D luminescence at 96 h is greater than or equal to 3.
f

Textbook exercise: given the entry CC[C@H](NC(=O)[C@H](C)NC)C(=O)N1C[C@@H](O)C[C@H]1Cc1c(-c2[nH]c3cc(F)ccc3c2C[C@@H]2C[C@H](O)CN2C(=O)[C@H](CC)NC(=O)[C@H](C)NC)[nH]c2cc(F)ccc12 [birinapant] , state whether its CTG-3D luminescence at 96 h is greater than or equal to 3.
f

Textbook exercise: given the entry COc1cccc2c1C(=O)c1c(O)c3c(c(O)c1C2=O)C[C@@](O)(C(=O)CO)C[C@@H]3O[C@H]1C[C@H](N)[C@H](O)[C@H](C)O1 [doxorubicin] , state whether its CTG-3D luminescence at 96 h is greater than or equal to 3.
f

Textbook exercise: given the entry Cc1cc(Nc2ncnc3ccc(NC4=NC(C)(C)CO4)cc23)ccc1Oc1ccn2ncnc2c1 [tucatinib] , state whether its CTG-3D luminescence at 96 h is greater than or equal to 3.
t

Textbook exercise: given the entry CN(Cc1cnc2nc(N)nc(N)c2n1)c1ccc(C(=O)N[C@@H](CCC(=O)O)C(=O)O)cc1 [methotrexate] , state whether its CTG-3D luminescence at 96 h is greater than or equal to 3.
f
